The origin of these recorded values is patent US8039430B2.

System: #449 E. faecium van B ST17
EXPERIMENT_DESCRIPTION: Antibacterial assay (MIC), VRE strain #449, Enterococossel Broth, Example 1
Type: cell-based, Enterococcus faecium
CONDITIONS_USED: Enterococcus faecium; Example 1 compounds; VRE #449 E. faecium van B; 24 hrs, 37° C.; read-out: 449 (minimum inhibitory concentration)
Listed next: entries and their corresponding MIC.

- MOLECULE: "CC(C)CCOc1ccc2ccccc2c1-c1c(OCC(=O)N[C@H](CCCCN)C(=O)N[C@H](CCCNC(=N)N)C(=O)NC2(C(=O)OCc3ccccc3)CCCCC2)ccc2ccccc12.Cl.Cl (atropisomer, axis not shown) [Compound 21]"
  TEST_TARGET: "#449 E. faecium van B ST17"
  MIC: "15.7 to 62.5 µg/mL"
- MOLECULE: "CC(C)CCOc1ccc2ccccc2c1-c1c(OCC(=O)N[C@H](CCCCN)C(=O)N[C@H](CCCNC(=N)N)C(=O)N[C@@H](CC(C)C)C(=O)OCc2ccccc2Cl)ccc2ccccc12.Cl.Cl (atropisomer, axis not shown) [Compound 7]"
  TEST_TARGET: "#449 E. faecium van B ST17"
  MIC: "15.7 to 62.5 µg/mL"
- MOLECULE: "C=CC[C@H](NC(=O)[C@@H](CCCNC(=N)N)NC(=O)[C@@H](CCCCN)NC(=O)COc1ccc2ccccc2c1-c1c(OCCC(C)C)ccc2ccccc12)C(=O)OCc1ccccc1.Cl.Cl (atropisomer, axis not shown) [Compound 29]"
  TEST_TARGET: "#449 E. faecium van B ST17"
  MIC: "0.99 to 15.6 µg/mL"

// query MIC value for entry C=CCOc1ccc2ccccc2c1-c1c(OCC(=O)N[C@H](CCCNC(=N)N)C(=O)Nc2cccc(C(=O)NOCc3ccccc3)c2)ccc2ccccc12.Cl (atropisomer, axis not shown) [Compound 46]
> 62.6 µg/mL

###

Test system: E.f243
EXPERIMENT_DESCRIPTION: Antibacterial screening (MIC) of compounds of Example 2, E.f243
Type: cell-based, Enterococcus faecium
CONDITIONS_USED: Enterococcus faecium; Example 2 compounds; enterococci strain E.f243; read-out: Antibacterial activity μg/mL, E.f243
OBSERVABLE: MIC (µg/mL)
// note: answer is a bare numeric in µg/mL

- COMPOUND: "C=CC[C@H](NC(=O)[C@@H](CCCNC(=N)N)NC(=O)[C@@H](CCCCN)NC(=O)COc1ccc2ccccc2c1-c1c(OC)ccc2ccccc12)C(=O)OCc1ccccc1.Cl.Cl (atropisomer, axis not shown)"
  OBSERVABLE: "MIC"
  NUMERIC_READOUT: 125

What is its MIC for E.f243? Entry: C=CCOc1ccc2ccccc2c1-c1c(OCC(=O)N[C@H](CCCNC(=N)N)C(=O)Nc2cccc(C(=O)OC)c2)ccc2ccccc12.Cl (atropisomer, axis not shown)
125

Entry to check: C=CC[C@H](NC(=O)[C@@H](CCCNC(=N)N)NC(=O)[C@@H](CCCCN)NC(=O)COc1ccc2ccccc2c1-c1c(O)ccc2ccccc12)C(=O)OCc1ccccc1.Cl.Cl (atropisomer, axis not shown)
125

Entry to check: CCCOc1ccc2ccccc2c1-c1c(OCC(=O)N[C@H](CCCCN)C(=O)N[C@H](CCCNC(=N)N)C(=O)N[C@@H](CCC)C(=O)OCc2ccccc2)ccc2ccccc12.Cl.Cl (atropisomer, axis not shown)
31.3

Entry to check: C=CCOc1ccc(C[C@H](NC(=O)[C@@H](CCCNC(=N)N)NC(=O)COc2ccc3ccccc3c2-c2c(O)ccc3ccccc23)C(=O)OC)cc1.Cl (atropisomer, axis not shown)
125

Entry to check: C=CCOc1ccc2ccccc2c1-c1c(OCC(=O)N[C@H](CCCCN)C(=O)N[C@H](CCCNC(=N)N)C(=O)N[C@@H](CC=C)C(=O)OCc2ccccc2)ccc2ccccc12.Cl.Cl (atropisomer, axis not shown)
31.3
